Please respond with reported binding (% of control) for every item in the list.
Tested on: anti-desmoglein-3 scFv antibody binding to human DSG3
Test: inhibitors of anti-DSG3 scFv binding to DSG3, pilot screen, biochemical, validation compound set, bead-based, flow cytometry (AID 588368);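 note: signal is the median channel fluorescence of bead-bound GFP antibody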
Conditions: Protein G beads, DSG3-Fc, scFv-GFP binding, at 10 µM, hits give low values
Answers are plain numbers, in %.

Here is how some compounds turned out for binding (% of control).
COc1ccccc1C1(CC(=O)N2CCCCC2)CCOC(C(C)C)C1 (stereo not given)
105
COc1ccc(C2CNC(=O)C2)cc1OC1CCCC1 (stereo not given)
105
Cc1nc(N[C@@H](Cc2c[nH]c3ccccc23)C(=O)O)c2oc3ccccc3c2n1
102

Hi! Can you tell me binding (% of control) for each of these compounds?
1. COc1ccc(C(=O)OCc2cc3cccc(C)c3[nH]c2=O)cc1
2. C=CCN1C(=O)c2oc3ccccc3c(=O)c2C1c1ccc(O)c(OC)c1 (stereo not given)
3. COc1cc([C@@H]2c3cc4c(cc3[C@H](O)[C@H]3COC(=O)[C@H]23)OCO4)cc(OC)c1OC
4. CC(=O)O[C@H]1CSC[C@H]1NC(=O)c1ccccc1
5. CC1(C)OC2OC(C(=O)N/N=C/c3ccccc3F)C3OC(C)(C)OC3C2O1 (stereo not given)
6. COc1cc2c3c(c1)C1(C(=O)N3C(C)(C)C=C2C)C(C#N)=C(N)Oc2cc(C)oc(=O)c21 (stereo not given)

1. 96.4
2. 99.1
3. 102
4. 102
5. 96.5
6. 110

Could you tell me which binding (% of control) is on file for COc1ccc(C2C3C(C)=NN=C3CC(C)(O)C2C(C)=O)cc1 (stereo not given) ?
101
